The reported numbers originate from PubChem BioAssay (NCI).

assay.summary: NCI Yeast Anticancer Drug Screen. Data for the mgt1 strain (AID 153)
condition.set: S. cerevisiae mgt1 mutant growth inhibition; at 33.0 µM
The panel holds about 79,000 compounds, 15% with a hit somewhere; the sample as a whole holds those more often. Activity calls are given as the source filed them. No stated cut-off is given here; in the data, active means growth inhibition above about 70%; inactive means the rest.
Hi there, use one of these labels in your reply, thanks! active, inactive

Recorded results for 3 compounds are shown here.
{"columns": ["compound", "cat"],
 "data": [
  ["CN(N=O)C(=O)N[C@@H](C=O)[C@@H](O)[C@H](O)[C@H](O)CO", "inactive"],
  ["S=C1SCN(CCc2ccccc2)CN1CCc1ccccc1", "inactive"],
  ["CO[C@@]12[C@H](COC(N)=O)C3=C(C(=O)C(C)=C(N)C3=O)N1C[C@@H]1N[C@@H]12", "inactive"]
]}

query: For CN(C)CCN1C(=O)c2cccc3cc([N+](=O)[O-])cc(c23)C1=O , which call appears in the assay record?
result: inactive

query: Outcome logged for O=C(CNS(=O)(=O)Cc1ccccc1)NNc1ccccc1 in this assay:
result: inactive

query: Would you mind telling me which call this test gave Nc1ccc2c(=S)c3ccccc3[nH]c2c1 ?
result: inactive

query: Assay outcome for O=S(=O)(c1cc(Cl)ccc1O)c1cc(Cl)ccc1O : what was it?
result: active

query: I would be grateful if you could indicate the recorded call for Clc1c(Cl)c(Cl)c2n[nH]nc2c1Cl .
result: inactive

query: Call for entry C(=N/NC1=NCCN1)/c1c2ccccc2c(/C=N\NC2=NCCN2)c2ccccc12 :
result: inactive

query: Hi, do you know how Cc1cc(O)c2c(c1O)C(=O)C13C(=C2O)C(=O)C2C(O)C1C1C(O)C3C(=O)C3=C(O)c4c(O)cc(C)c(O)c4C(=O)C321 (stereo unspecified) came out in this test?
result: active

query: Which result was noted for this compound in the test: Nc1nc(N)c2cc(Sc3ccc4ccccc4c3)ccc2n1
result: active

###

assay.summary: NCI Yeast Anticancer Drug Screen. Data for the bub3 strain (AID 167)
condition.set: S. cerevisiae bub3 mutant strain, at 100.0 µM, stronger effect = higher value
Protocol: Growth inhibition of yeast strains with defined genetic alterations is measured as a screen for potential anti-cancer activity. Selected strains with alterations in DNA damage repair or cell cycle control were exposed to compounds and growth inhibition was measured relative to vehicle treated controls. The strain used in this assay is bub3
The panel holds about 79,000 compounds, 15% with a hit somewhere; the sample as a whole holds those more often.
measurement.type: growth inhibition (%)
Give the number; % is assumed, so skip it.

Guide cases for growth inhibition, answers given:
{"columns": ["compound", "data.value"],
 "data": [
  ["Nc1nc2c(c(=O)[nH]1)NC(CCNc1ccc(C(=O)O)cc1)CN2 (centres undefined)", 24],
  ["O=C1CC(=O)N(C2CCCCC2)C(=O)N1c1ccccc1S(=O)(=O)Oc1ccccc1", 32]
]}

Lookup result for CCc1nc(N)nc(N)c1-c1ccc(NCCCCCCN)c([N+](=O)[O-])c1 ; measured growth inhibition: -2

The recorded growth inhibition for CN(N=O)C(=O)N[C@@H](C=O)[C@@H](O)[C@H](O)[C@H](O)CO is -1

The value of growth inhibition measured for the compound Nc1ccc2c(=S)c3ccccc3[nH]c2c1 turned out to be 35

# compound CN(C)c1ccc(/C=C/c2ccnc3ccccc23)cc1N ; its growth inhibition = 20

Lab note: measured growth inhibition of CC[C@@]1(OC(=O)CCC(=O)O)C(=O)OCc2c1cc1n(c2=O)Cc2cc3ccccc3nc2-1 was 86

What the record says about O=C(O)c1[nH]c(=O)c2ccccc2c1Nc1ccccc1 : growth inhibition is -2

Notebook: CNc1ccc(Cc2c[nH]c3ccccc23)cc1 , growth inhibition read as 30

###

assay.summary: NCI Yeast Anticancer Drug Screen. Data for the rad50EPP+ strain (AID 151);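 further: 0% = growth of vehicle-treated control cultures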
condition.set: S. cerevisiae rad50 mutant strain, at 3.7 µM, stronger effect = higher value
About 79,000 compounds went through this panel and 15% of them were active in at least one assay; those are over-represented in the sample as a whole.
measurement.type: growth inhibition (%)
Express it in %; write the number only.

{"columns": ["compound", "units.label", "data.value"],
 "data": [
  ["O=C(CCc1ccccc1)ON1C(=S)C(c2ccccc2)(c2ccccc2)N=C1Sc1ccccc1", "%", -6],
  ["COc1cc(N)ccc1Nc1c2ccccc2nc2ccccc12", "%", -11],
  ["O=S1(=O)c2ccccc2N=C(c2ccccc2Cl)CC1c1ccc(F)cc1 (stereo not drawn)", "%", -22],
  ["COc1ccc(N)c2c1C(=O)c1ccccc1C2=O", "%", 26],
  ["O=C(/C=C/c1cccc2ccccc12)c1ccc(Cl)cc1", "%", 4],
  ["CC(=O)c1cc2c(Cl)cc(Cl)cc2oc1=O", "%", -16],
  ["c1ccc2c(c1)Cn1c-2nc2ccccc21", "%", -4],
  ["C=C(CCCO)[C@@H]1CC[C@@](C)(O)[C@H]1C", "%", -32]
]}

Recorded growth inhibition (compound CC(=O)C1(O)Cc2c(O)c3c(c(O)c2C(OC2CC(N)C(O)C(C)O2)C1)C(=O)c1ccccc1C3=O (stereo not drawn) ): 92

O=NN(CCCl)C(=O)NCCCl yielded growth inhibition of -1

// O=C1OC2C(O)COC2(OCc2c[nH]c3ccccc23)C1O (stereo not drawn) (tested in a mixture with another compound) : growth inhibition value = 3

Consider O=C1c2c(O)cccc2-c2nn(CCNCCO)c3ccc(NCCNCCO)c1c23 . Its measured growth inhibition is 19

growth inhibition measured on CC1OC(OC2CCCc3c(O)c4c(c(O)c32)C(=O)c2ccccc2C4=O)CC(N)C1O (stereo not drawn) = 30

What the record says about COc1cc([C@@H]2c3cc4c(cc3[C@@H](OC3OC5COC(C)OC5C(O)C3O)[C@H]3COC(=O)[C@H]23)OCO4)cc(OC)c1O (stereo partly drawn) : growth inhibition is -3

Noted for O=c1ccc(N=Nc2ccccc2)ccc1O : its growth inhibition reads 11

Data point: Cc1ccc(CNc2ccc(Br)cc2)cc1 ; growth inhibition = -11

For record O=C1C=CC(=O)N1c1ccc(N2C(=O)C=CC2=O)cc1 the listed growth inhibition is 49

So for CC[C@@]1(OC(=O)CCC(=O)O)C(=O)OCc2c1cc1n(c2=O)Cc2cc3ccccc3nc2-1 , the logged growth inhibition turned out to be 47

Just so you know, measured growth inhibition for CN(CC(=O)O)c1ccc(/C=C/c2ccnc3ccccc23)cc1 came out at 3

For this compound ( Nc1ccc2c(=S)c3ccccc3[nH]c2c1 ), measured growth inhibition is 6

Looking up CCCCC(CC)C(=O)Oc1ccc(C(=O)c2ccccc2)c(O)c1 (stereo not drawn) , I found its growth inhibition recorded as 13

For reference, reported growth inhibition for O=C(O)c1[nH]c(=O)c2ccccc2c1Nc1ccccc1 stands at -2

Quick note, growth inhibition for CCC(NC(C)c1ccccc1)C(=O)c1ccc(OCc2ccccc2)c(OCc2ccccc2)c1 (stereo not drawn) landed at 7

Item: Cc1nc2c(ncn2CCO)c(=O)[nH]1 | growth inhibition: 10

// COc1cc2c(cc1C[N+](C)(C)CSc1ccccc1)-c1ccccc1CC2 : growth inhibition value = 20

Given item C(=N/NC1=NCCN1)/c1c2ccccc2c(/C=N\NC2=NCCN2)c2ccccc12 , the value recorded as its growth inhibition is 33

CCc1[nH]nc(C(N)=O)c1N=NN(C)C yielded growth inhibition of 12

###

Property: growth inhibition; scope: individual molecules
assay.summary: NCI Yeast Anticancer Drug Screen. Data for the wt2 strain (AID 169);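 further: 0% = growth of vehicle-treated yeast cultures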
condition.set: S. cerevisiae wt2 strain growth inhibition; at 11.0 µM; stronger effect = higher value
About 79,000 compounds went through this panel and 15% of them were active in at least one assay; those are over-represented in the sample as a whole.
Use % as the unit, but write only the number.

Solved cases below.
{"columns": ["line.notation", "growth inhibition / %"],
 "data": [
  ["Cc1cc(OCc2ccccc2)ccc1[N+](=O)[O-]", -7],
  ["CCN(CC)CCNC(=O)c1nn(-c2ccc(Cl)cc2)c2c1CCc1cc(OC)ccc1-2", -8],
  ["O=[N+]([O-])c1cccc2nc3ccccc3c(NCCc3cccc[n+]3[O-])c12", 14],
  ["COc1ccc(N2CN(C)CSC2=S)cc1", -22],
  ["NNC(=S)Nc1cccc2ccccc12", -33]
]}

growth inhibition for O=C(CCc1ccccc1)ON1C(=S)C(c2ccccc2)(c2ccccc2)N=C1Sc1ccccc1 is 0

growth inhibition measured on Oc1ccccc1N=Cc1ccc(Cl)cc1 = 4

For NC(=O)N1c2ccccc2C=Cc2ccccc21 the molecule record lists growth inhibition as -37

Looking up CNc1nc(C)nc2c1cnn2-c1ccc([N+](=O)[O-])cc1 , I found its growth inhibition recorded as 13

###

assay.summary: NCI Yeast Anticancer Drug Screen. Data for the mlh1 strain (AID 171);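 further: 0% = growth of vehicle-treated control cultures of the same strain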
condition.set: S. cerevisiae mlh1 strain growth inhibition; at 33.0 µM; stronger effect = higher value
Compounds without any hit were thinned out: in the full panel of roughly 79,000, 15% have a hit. The source made the active and inactive calls. Cut-off read from the data, not from the text of the source: active = growth inhibition above about 70%; inactive = the rest.
Below, each entry is listed with its recorded growth inhibition.

Consider the reported growth inhibition for these compounds:
{"columns": ["compound", "growth inhibition"],
 "data": [
  ["CC(=O)[O-].O=C([CH-]C(=O)c1ccccc1)c1ccccc1.O=C([CH-]C(=O)c1ccccc1)c1ccccc1.[Sm+3]", "98% (active)"],
  ["COc1cccc(C(c2cc3c(cc2O)OCO3)N2CCOCC2)c1OC (stereo unspecified)", "7% (inactive)"]
]}

Please fill in: growth inhibition reported for COCCCN(Cc1cc(OC)c(OC)c(OC)c1)C(=S)Nc1cccc(Cl)c1 = -30% (inactive)

growth inhibition in this record for Nc1cc(S(N)(=O)=O)ccc1SSc1ccc(S(N)(=O)=O)cc1N : 28% (inactive)

Reported growth inhibition of O=S(=O)(c1cc(Cl)ccc1O)c1cc(Cl)ccc1O : 99% (active)

Lab book: growth inhibition of Cc1cc(C(C)(C)CC(C)(C)C)cc(O)c1O noted as 88% (active)
